# relative viability per record follows
System: 621-102 (TSC2-deficient)
Test: relative viability vs DMSO (fraction); higher = less cytotoxic
Details: 40 nM; serum: 0.1% FBS; 72 h
// no unit, no text: just the number

SMILES_REPR | relative viability
c1cncc(CN2CCC(n3ncc4c(N5CCOCC5)nc(-c5ccc6[nH]ccc6c5)nc43)CC2)c1 | 1.19

Ask | Please look up its relative viability: Nc1ccccc1NC(=O)c1ccc(CNc2nccc(-c3cccnc3)n2)cc1
Reply | 0.401

Ask | Lookup CCC[C@H](NC(=O)/C(C#N)=C/c1cccc(Br)n1)c1ccccc1
Reply | 1.62

---

# relative viability per record follows
System: 621-102 (TSC2-deficient)
Assay: relative viability vs DMSO; higher = less cytotoxic
Settings: 10 µM; serum: 10% FBS; 72 h
Numeric only. Scale: %

Ask | Please look up its relative viability: O=C(Cc1ccc(-c2ccc(OCCN3CCOCC3)cc2)cn1)NCc1ccccc1
Reply | 37.3

Ask | Lookup CN(C)c1ccc(-c2nc3ncc(Cl)c(N4CCN(CC(=O)Nc5nccs5)CC4)c3[nH]2)cc1
Reply | 49.3

Ask | Lookup CO[C@H]1C[C@@H]2CC[C@@H](C)[C@@](O)(O2)C(=O)C(=O)N2CCCC[C@H]2C(=O)O[C@H]([C@H](C)C[C@@H]2CC[C@@H](O)[C@H](OC)C2)CC(=O)[C@H](C)/C=C(\C)[C@@H](O)[C@@H](OC)C(=O)[C@H](C)C[C@H](C)/C=C/C=C/C=C/1C [Rapamycin (Sirolimus)]
Reply | 44.8

Ask | Lookup CC[C@H](c1ccc(O)cc1)[C@@H](CC)c1ccc(O)cc1
Reply | 99.9
